src = ChEMBL document CHEMBL1159176

- STUDY_TARGET: 5-hydroxytryptamine receptor 1A (Rattus norvegicus, UniProt P19327)
- Sequence (P19327 whole entry): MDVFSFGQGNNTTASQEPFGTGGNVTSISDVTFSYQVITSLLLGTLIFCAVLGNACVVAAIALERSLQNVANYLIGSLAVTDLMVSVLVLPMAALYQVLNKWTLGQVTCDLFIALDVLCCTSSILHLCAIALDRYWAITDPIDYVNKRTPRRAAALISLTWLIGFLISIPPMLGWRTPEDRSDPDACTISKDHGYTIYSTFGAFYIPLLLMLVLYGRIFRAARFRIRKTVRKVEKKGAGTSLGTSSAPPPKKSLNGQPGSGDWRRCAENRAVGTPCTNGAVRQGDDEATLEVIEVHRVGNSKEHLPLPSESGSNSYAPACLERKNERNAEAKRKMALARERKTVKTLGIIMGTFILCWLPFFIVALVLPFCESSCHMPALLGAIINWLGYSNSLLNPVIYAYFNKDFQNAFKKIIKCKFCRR
Flag rule - Ki less than 0.2 µM flags condition met; the remaining entries get condition not met.

Would you please look over these solved cases?
FC(F)(F)c1cccc(C2CCNC2)c1 (stereo not drawn)	condition met
CCCN1CCC(c2ccccc2)C1 (stereo not drawn)	condition not met
CCCN1CCC(c2cccc3ccccc23)C1 (stereo not drawn)	condition met
c1ccc2c(C3CCNC3)cccc2c1 (stereo not drawn)	condition met
CCCN1CCC(c2cccc(S(C)(=O)=O)c2)C1 (stereo not drawn)	condition not met
CCCN1CCC(c2cccc(OS(=O)(=O)C(F)(F)F)c2)C1 (stereo not drawn)	condition not met

Proceed to the following item.
Given the entry CCCN1CCC(c2cccc(C(F)(F)F)c2)C1 (stereo not drawn) , would its reported Ki be below 0.2 µM?
condition not met

---

- Test system: Rattus norvegicus
- EXPERIMENTAL_DETAILS: Accumulation of Dihydroxyphenylalanine in cortical brain region in rat after injecting drug compound 65 min and NSD 1015 at a dose of 100 mg/kg administered subcutaneously, 30 min before death, tested in vivo
- Assay type: functional
- CONDITIONS_USED: route subcutaneous
METRIC: Control (%)
Give the value, in units of %, as a plain number.

CCCN1CCC(C2CCCCC2)C1 (stereo not drawn)	119
CS(=O)(=O)c1cccc(C2CCNC2)c1 (stereo not drawn)	104

Would you kindly share the measured Control for CCCN1CCC(c2cccnc2)C1 (stereo not drawn) ?
132

Would you kindly share the measured Control for CCCN1CCC(c2cccc(S(C)(=O)=O)c2)C1 (stereo not drawn) ?
143

Would you kindly share the measured Control for FC(F)(F)c1cccc(C2CCNC2)c1 (stereo not drawn) ?
72

Would you kindly share the measured Control for CCCN1CCC(c2cccc(C(F)(F)F)c2)C1 (stereo not drawn) ?
131

Would you kindly share the measured Control for CCCN1CCC(c2ccccc2)C1 (stereo not drawn) ?
130

Would you kindly share the measured Control for CCCN1CCC(c2cccc(OS(=O)(=O)C(F)(F)F)c2)C1 (stereo not drawn) ?
114

Would you kindly share the measured Control for CCCN1CCC(c2cccc(O)c2)C1 (stereo not drawn) ?
88

Would you kindly share the measured Control for CCCN1CCC(c2cccc3ccccc23)C1 (stereo not drawn) ?
115

Would you kindly share the measured Control for CN1CCC(C2=CN=CCC2)C1 (stereo not drawn) ?
126

Would you kindly share the measured Control for c1ccc2c(C3CCNC3)cccc2c1 (stereo not drawn) ?
104

Would you kindly share the measured Control for CCCN1CCC[C@@H](c2cccc(S(C)(=O)=O)c2)C1 ?
165
